tested on: ATP; test: switch fluorescence ratio, 500 uM ATP over buffer (Cy3 cluster intensity, sum of 5 cycles each) (fold (ratio)); higher = stronger signal-on switching upon ATP binding; sequences stand for … in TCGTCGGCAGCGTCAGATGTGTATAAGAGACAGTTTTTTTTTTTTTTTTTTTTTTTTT…TC; details: aptamer strand: ATP DNA aptamer (quencher-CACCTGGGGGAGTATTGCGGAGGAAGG + anchor), 100 nM annealed; ATP concentration: 500 uM;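 further: ATP exposure 15 min at 22 °C before imaging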
Answer each item with its documented switch fluorescence ratio.
I'd appreciate a reply containing only the number, no unit.

Entry `GTTATTGGGG` ; assay system ATP; switch fluorescence ratio recorded at 1.01

Entry `CAAATCAGGA` ; assay system ATP; switch fluorescence ratio recorded at 1

Entry `TTTGTGGGGG` ; assay system ATP; switch fluorescence ratio recorded at 1.01

Entry `TAGGCGTGTC` ; assay system ATP; switch fluorescence ratio recorded at 0.992

Entry `TGACTTTTTC` ; assay system ATP; switch fluorescence ratio recorded at 1.03

Entry `CGTGAAAGCT` ; assay system ATP; switch fluorescence ratio recorded at 1.18

Entry `AGTGGGATTT` ; assay system ATP; switch fluorescence ratio recorded at 0.993

Entry `TGAAGCCAGT` ; assay system ATP; switch fluorescence ratio recorded at 1

Entry `TTAATGGCGA` ; assay system ATP; switch fluorescence ratio recorded at 0.986

Entry `TTTATTTAAT` ; assay system ATP; switch fluorescence ratio recorded at 1.03

Entry `GTTTGGCCAT` ; assay system ATP; switch fluorescence ratio recorded at 1.02

Entry `ATTGAGTGGC` ; assay system ATP; switch fluorescence ratio recorded at 0.928

Entry `CCGGTGCGTG` ; assay system ATP; switch fluorescence ratio recorded at 1.13

Entry `ATTAAAGTAG` ; assay system ATP; switch fluorescence ratio recorded at 1.01

Entry `GTATTTCCGG` ; assay system ATP; switch fluorescence ratio recorded at 0.997

Entry `GGGATAGCCG` ; assay system ATP; switch fluorescence ratio recorded at 1

Entry `TTACACGGGG` ; assay system ATP; switch fluorescence ratio recorded at 0.969

Entry `GAGAGTTGGG` ; assay system ATP; switch fluorescence ratio recorded at 0.985

Entry `TCCAGATCAT` ; assay system ATP; switch fluorescence ratio recorded at 0.993

Entry `AGGGGGTTCC` ; assay system ATP; switch fluorescence ratio recorded at 0.99

Entry `GTTCCTGCGG` ; assay system ATP; switch fluorescence ratio recorded at 1.08

Entry `AGGAGACGAA` ; assay system ATP; switch fluorescence ratio recorded at 0.985

Entry `CAGGACGGGT` ; assay system ATP; switch fluorescence ratio recorded at 1.02

Entry `TTATCGTGTC` ; assay system ATP; switch fluorescence ratio recorded at 1.02

Entry `TTGTTTAAGT` ; assay system ATP; switch fluorescence ratio recorded at 1

Entry `TTTTAAAAGT` ; assay system ATP; switch fluorescence ratio recorded at 1

Entry `AACTGAGAAG` ; assay system ATP; switch fluorescence ratio recorded at 0.988

Entry `CGAGCATAGG` ; assay system ATP; switch fluorescence ratio recorded at 1.23

###

test system: ATP; experiment: switch fluorescence ratio, 500 uM ATP over buffer (Cy3 cluster intensity, sum of 5 cycles each) (fold (ratio)); higher = stronger signal-on switching upon ATP binding; sequences stand for … in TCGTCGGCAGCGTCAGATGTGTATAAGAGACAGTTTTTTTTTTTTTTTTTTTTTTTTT…TC; settings: aptamer strand: ATP DNA aptamer (quencher-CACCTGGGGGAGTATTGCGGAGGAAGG + anchor), 100 nM annealed; ATP concentration: 500 uM;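 further: ATP exposure 15 min at 22 °C before imaging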
MEASURED_ATTRIBUTE: switch fluorescence ratio
I'd appreciate a reply containing only the number, no unit.

Entry `ACGGCCGGGA` ; assay system ATP; switch fluorescence ratio recorded at 1.02

Entry `TAAATTTTAG` ; assay system ATP; switch fluorescence ratio recorded at 1.01

Entry `TGGTTATGTA` ; assay system ATP; switch fluorescence ratio recorded at 1

Entry `GTGGTTTTGG` ; assay system ATP; switch fluorescence ratio recorded at 1

Entry `TAATAGGGTT` ; assay system ATP; switch fluorescence ratio recorded at 1.01

Entry `CCGGATTATG` ; assay system ATP; switch fluorescence ratio recorded at 1.05

Entry `CCTCGGACTT` ; assay system ATP; switch fluorescence ratio recorded at 1.57

Entry `CATTTACCGG` ; assay system ATP; switch fluorescence ratio recorded at 0.996

Entry `TTTAGTTTGT` ; assay system ATP; switch fluorescence ratio recorded at 0.99

Entry `CTAGCATCCG` ; assay system ATP; switch fluorescence ratio recorded at 1.03

###

system: ATP; test: switch fluorescence ratio, 500 uM ATP over buffer (Cy3 cluster intensity, sum of 5 cycles each) (fold (ratio)); higher = stronger signal-on switching upon ATP binding; sequences stand for … in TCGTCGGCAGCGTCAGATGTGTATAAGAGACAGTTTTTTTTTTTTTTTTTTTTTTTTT…TC; conditions: aptamer strand: ATP DNA aptamer (quencher-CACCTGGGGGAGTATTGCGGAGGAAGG + anchor), 100 nM annealed; ATP concentration: 500 uM;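 further: ATP exposure 15 min at 22 °C before imaging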
Answer each item with its documented switch fluorescence ratio.
I'd appreciate a reply containing only the number, no unit.

Noted for `TGGGTGTGTT` : its switch fluorescence ratio reads 0.995

Noted for `TATGAAGGGG` : its switch fluorescence ratio reads 1.22

Noted for `TATATAACGG` : its switch fluorescence ratio reads 1.04

Noted for `GGGATATGAA` : its switch fluorescence ratio reads 0.992

Noted for `TTTGACTTTT` : its switch fluorescence ratio reads 0.994

Noted for `AAGAGGCCCC` : its switch fluorescence ratio reads 0.999

Noted for `GTTGAAGGAT` : its switch fluorescence ratio reads 1

Noted for `CGGTTCTGTG` : its switch fluorescence ratio reads 1

Noted for `GAGGTGTTGA` : its switch fluorescence ratio reads 0.998

Noted for `CTGGTGGACG` : its switch fluorescence ratio reads 1.04

Noted for `GTTATGTTGT` : its switch fluorescence ratio reads 1.01

Noted for `GAGGTTATAT` : its switch fluorescence ratio reads 0.992

Noted for `GGTCGGGTTG` : its switch fluorescence ratio reads 0.979

Noted for `AAATTAATGT` : its switch fluorescence ratio reads 1

Noted for `GGATGGGGCT` : its switch fluorescence ratio reads 1.02

Noted for `GTGATTGAGT` : its switch fluorescence ratio reads 0.971

Noted for `ATTATGCTAT` : its switch fluorescence ratio reads 1.05

Noted for `GCGTTTGTGC` : its switch fluorescence ratio reads 1.01

Noted for `GGGGTTATAA` : its switch fluorescence ratio reads 0.998

Noted for `TTGGCGCTTG` : its switch fluorescence ratio reads 1.02

Noted for `TCATATAATA` : its switch fluorescence ratio reads 1.01

Noted for `TTACGGAAGT` : its switch fluorescence ratio reads 1.11

Noted for `ATGGATGGGC` : its switch fluorescence ratio reads 1.04

Noted for `AGTTTTACAG` : its switch fluorescence ratio reads 1.01

Noted for `TTTGGCGGAG` : its switch fluorescence ratio reads 0.992

Noted for `ATGCAGTATG` : its switch fluorescence ratio reads 0.967

Noted for `CATTCTTTGG` : its switch fluorescence ratio reads 0.984

Noted for `CGGGGCACTG` : its switch fluorescence ratio reads 0.997

Noted for `TAACAGGTAG` : its switch fluorescence ratio reads 1.05

###

tested on: ATP; assay: switch fluorescence ratio, 500 uM ATP over buffer (Cy3 cluster intensity, sum of 5 cycles each) (fold (ratio)); higher = stronger signal-on switching upon ATP binding; sequences stand for … in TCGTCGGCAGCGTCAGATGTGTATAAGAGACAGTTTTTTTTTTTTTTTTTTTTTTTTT…TC; conditions: aptamer strand: ATP DNA aptamer (quencher-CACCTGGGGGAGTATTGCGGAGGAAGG + anchor), 100 nM annealed; ATP concentration: 500 uM;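 further: ATP exposure 15 min at 22 °C before imaging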
Entry flag: yes (1) if switch fluorescence ratio reaches 1; no (0) if it does not.

Hello, I need to know if `ATTTAACGGT` has measured switch fluorescence ratio not below 1. Thanks! yes (1)

Hello, I need to know if `TCGTCCAAGT` has measured switch fluorescence ratio not below 1. Thanks! yes (1)

Hello, I need to know if `CAGCATAGAT` has measured switch fluorescence ratio not below 1. Thanks! yes (1)

Hello, I need to know if `TTTTGCATTG` has measured switch fluorescence ratio not below 1. Thanks! yes (1)

Hello, I need to know if `ACTCTAAAAA` has measured switch fluorescence ratio not below 1. Thanks! yes (1)

Hello, I need to know if `TTTAATTTT` has measured switch fluorescence ratio not below 1. Thanks! yes (1)

Hello, I need to know if `AATTCCGGCG` has measured switch fluorescence ratio not below 1. Thanks! yes (1)

Hello, I need to know if `CGGCTCGTTT` has measured switch fluorescence ratio not below 1. Thanks! yes (1)

Hello, I need to know if `TCGGGCTCGC` has measured switch fluorescence ratio not below 1. Thanks! no (0)

Hello, I need to know if `TTTTTTTTC` has measured switch fluorescence ratio not below 1. Thanks! yes (1)

Hello, I need to know if `GAGAATCGGG` has measured switch fluorescence ratio not below 1. Thanks! no (0)

Hello, I need to know if `GGGGTACGGG` has measured switch fluorescence ratio not below 1. Thanks! yes (1)

Hello, I need to know if `ACTGGGTACC` has measured switch fluorescence ratio not below 1. Thanks! yes (1)

Data origin: the supplement of paper PMC10126150
